- System: BT-549
- RUN DESCRIPTION: normalised response (% of control), CellTiter-Glo; higher = more viable cells (100 = DMSO, 0 = benzethonium chloride kill control)
- APPLIED CONDITIONS: incubation time: 72 h
Below, each entry is listed alongside its reported normalised response.

>  <COMPOUND>
C=CCc1cccc(/C=N/NC(=O)CN2CCN(Cc3ccccc3)CC2)c1O [PAC-1] (10000 nM)

>  <normalised response (%)>
34

$$$$
>  <COMPOUND>
N#Cc1ccc(C(c2ccc(C#N)cc2)n2cncn2)cc1 [Letrozole] (10000 nM)

>  <normalised response (%)>
96.3

$$$$
>  <COMPOUND>
CCc1cncnc1N1CCN(Cc2nc3ccc(C(F)(F)F)cc3[nH]2)CC1 (10000 nM)

>  <normalised response (%)>
83.9

$$$$
>  <COMPOUND>
O=C(Cc1ccc(-c2ccc(OCCN3CCOCC3)cc2)cn1)NCc1ccccc1 [KX2-391] (10000 nM)

>  <normalised response (%)>
45.8

$$$$
>  <COMPOUND>
C=CC(=O)Nc1cc2c(Nc3ccc(F)c(Cl)c3)ncnc2cc1OCCCN1CCOCC1 [Canertinib] (10000 nM)

>  <normalised response (%)>
4.73

$$$$
>  <COMPOUND>
CC1=C(/C=C/C(C)=C/C=C/C(C)=C/C(=O)O)C(C)(C)CCC1 [Tretinoin] (10000 nM)

>  <normalised response (%)>
62.2

$$$$
>  <COMPOUND>
O=C(O)C1(C(=O)O)CCC1.[NH2-].[NH2-].[Pt+2] [Carboplatin] (10000 nM)

>  <normalised response (%)>
103

$$$$
>  <COMPOUND>
Nc1nc(F)nc2c1ncn2[C@@H]1O[C@H](CO)[C@@H](O)[C@@H]1O [Fludarabine] (10000 nM)

>  <normalised response (%)>
79.1

$$$$
>  <COMPOUND>
Cc1cnc(NC(=O)Nc2cc(Br)c(C)cc2OC[C@@H]2CNCCO2)cn1 [Rabusertib] (1000 nM)

>  <normalised response (%)>
91.5

$$$$
